What pKd was measured for each of the following?
test_target: BIR3 domain of XIAP (recombinant XIAP-BIR3, residues 238-358) (Homo sapiens)
Construct: Recombinant XIAP-BIR3 (residues 238-358); GST (N, cleaved yes)
Sequence (P98170 238-358): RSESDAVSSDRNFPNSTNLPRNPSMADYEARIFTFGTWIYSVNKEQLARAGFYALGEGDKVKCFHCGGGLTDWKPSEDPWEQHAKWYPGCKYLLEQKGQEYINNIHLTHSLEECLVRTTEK
experiment_description: Fluorescence-based competition assay of tetrapeptide libraries (Example 1)
Method: Expression and Purification of BIR3. […] The soluble fraction of the GST-BIR3 in the E. coli lysate was purified over a glutathione sepharose column, and further purified by anion exchange chromatography (Mono-Q, Amersham Biosciences). The fusion protein was cleaved by thrombin, and the GST portion was removed by the glutathione sepharose column. […] Fluorescence Experiments. Luminescence spectra were recorded using a Photon Technologies, Inc. fluorometer with a Xe arc lamp and a PMT detector. […]
Non-standard residues stand in square brackets, D forms with d. Residues, ends and D or L forms follow the SMILES beside them. NMeF = CN[C@@H](Cc1ccccc1)C(=O)O
A value of pKd is the negative decimal logarithm of a concentration given in moles per litre.

input: Entry CC(C)[C@H](NC(=O)[C@H](C)N)C(=O)N1CCC[C@H]1C(=O)NCC(N)=O [AVPG] (H-AVPG-NH2; N-terminus and C-terminus assumed) , system BIR3 domain of XIAP (recombinant XIAP-BIR3, residues 238-358) (Homo sapiens): what pKd was measured?
output: 5.33

input: Query CC[C@H](C)[C@H](NC(=O)[C@@H]1CCCN1C(=O)[C@H](Cc1c[nH]c2ccccc12)NC(=O)[C@H](C)N)C(N)=O [AWPI] (H-AWPI-NH2; N-terminus and C-terminus assumed) next
output: 6.00

input: Query CC[C@H](C)[C@H](NC(=O)[C@@H]1CCCN1C(=O)[C@@H](NC(=O)[C@H](C)N)[C@@H](C)O)C(N)=O [ATPI] (H-ATPI-NH2; N-terminus and C-terminus assumed) next
output: 5.92

input: Query CC(C)[C@H](NC(=O)[C@H](C)N)C(=O)N1CCC[C@H]1C(=O)N(C)[C@@H](Cc1ccccc1)C(N)=O [AVP(N-Me)F] (H-AVP[NMeF]-NH2; N-terminus and C-terminus assumed) next
output: 6.05

input: Query CC(C)[C@H](NC(=O)[C@H](C)N)C(=O)N1CCC[C@H]1C(=O)N[C@@H](Cc1c[nH]cn1)C(N)=O [AVPH] (H-AVPH-NH2; N-terminus and C-terminus assumed) next
output: 5.14

----------
test_target: BIR3 domain of XIAP (recombinant XIAP-BIR3, residues 238-358) (Homo sapiens)
Construct: Recombinant XIAP-BIR3 (residues 238-358); GST (N, cleaved yes)
experiment_description: Fluorescence-based competition assay of tetrapeptide libraries (Example 1)
pKd: −log10 of the molar value. Non-standard residues stand in square brackets, D forms with d. Residues, ends and D or L forms follow the SMILES beside them. NMeF = CN[C@@H](Cc1ccccc1)C(=O)O; NMeV = CN[C@H](C(=O)O)C(C)C
Is pKd at least 5? Then true. If not, false.

input: hey, is pKd for this one >= 5? CC[C@H](C)[C@H](NC(=O)[C@@H]1CCCN1C(=O)[C@H](Cc1c[nH]cn1)NC(=O)[C@H](C)N)C(N)=O [AHPI] (H-AHPI-NH2; N-terminus and C-terminus assumed)
output: true

input: Query CC[C@H](C)[C@H](NC(=O)[C@@H]1CCCN1C(=O)[C@H](CC(N)=O)NC(=O)[C@H](C)N)C(N)=O [ANPI] (H-ANPI-NH2; N-terminus and C-terminus assumed) next
output: true

input: Query CC[C@H](C)[C@H](NC(=O)[C@@H]1CCCN1C(=O)[C@@H](NC(=O)[C@@H](N)CO)C(C)C)C(N)=O [SVPI] next
output: false

input: Query CC[C@H](C)[C@H](NC(=O)[C@@H]1CCCN1C(=O)CNC(=O)[C@H](C)N)C(N)=O [AGPI] (H-AGPI-NH2; N-terminus and C-terminus assumed) next
output: false

input: Query CC(C)[C@H](NC(=O)[C@H](C)N)C(=O)N1CCC[C@H]1C(=O)N[C@@H](Cc1ccc(O)cc1)C(N)=O [AVPY] (H-AVPY-NH2; N-terminus and C-terminus assumed) next
output: true

input: Query CC[C@H](C)[C@H](NC(=O)[C@@H]1CCCN1C(=O)[C@H](CC(=O)O)NC(=O)[C@H](C)N)C(N)=O [ADPI] (H-ADPI-NH2; N-terminus and C-terminus assumed) next
output: false

input: Query CC(C)[C@H](NC(=O)[C@H](C)N)C(=O)N1CCC[C@H]1C(=O)N[C@@H](CCC(=O)O)C(N)=O [AVPE] (H-AVPE-NH2; N-terminus and C-terminus assumed) next
output: false

input: Query CC(C)[C@H](NC(=O)[C@H](C)N)C(=O)N1CCC[C@H]1C(=O)N[C@@H](C)C(N)=O [AVPA] (H-AVPA-NH2; N-terminus and C-terminus assumed) next
output: false

input: Query CC(C)[C@H](NC(=O)[C@H](C)N)C(=O)N[C@@H](C)C(=O)N[C@@H](Cc1ccccc1)C(N)=O [AVAF] next
output: true

input: Query CC(C)C[C@H](NC(=O)[C@@H]1CCCN1C(=O)[C@@H](NC(=O)[C@H](C)N)C(C)C)C(N)=O [AVPL] (H-AVPL-NH2; N-terminus and C-terminus assumed) next
output: true

input: Query CC(C)[C@H](NC(=O)[C@@H]1CCCN1C(=O)[C@@H](NC(=O)[C@H](C)N)C(C)C)C(N)=O [AVPV] (H-AVPV-NH2; N-terminus and C-terminus assumed) next
output: true

input: Query C[C@H](N)C(=O)N[C@@H](CCCNC(=N)N)C(=O)N1CCC[C@H]1C(=O)N(C)[C@@H](Cc1ccccc1)C(N)=O [ARP(N-Me)F] (H-ARP[NMeF]-NH2; N-terminus and C-terminus assumed) next
output: true

input: Query CC[C@H](C)[C@H](NC(=O)[C@@H]1CCCN1C(=O)[C@H](CCCNC(=N)N)NC(=O)[C@H](C)N)C(N)=O [ARPI] next
output: true

input: Query CC(C)[C@H](NC(=O)[C@H](C)N)C(=O)N1CCC[C@H]1C(=O)N[C@@H](CCCCN)C(N)=O [AVPK] (H-AVPK-NH2; N-terminus and C-terminus assumed) next
output: false

input: Query CC(C)[C@H](NC(=O)[C@H](C)N)C(=O)N1CCC[C@H]1C(=O)N1CCC[C@H]1C(N)=O [AVPP] (H-AVPP-NH2; N-terminus and C-terminus assumed) next
output: true

input: Query CC[C@H](C)[C@H](NC(=O)[C@@H]1CCCN1C(=O)[C@H](CO)NC(=O)[C@H](C)N)C(N)=O [ASPI] (H-ASPI-NH2; N-terminus and C-terminus assumed) next
output: true

input: Query CC(C)[C@@H](C(=O)N1CCC[C@H]1C(=O)N(C)[C@@H](Cc1ccccc1)C(N)=O)N(C)C(=O)[C@H](C)N [A(N-Me)VP(N-Me)F] (H-A[NMeV]P[NMeF]-NH2; N-terminus and C-terminus assumed) next
output: false

input: Query CC(C)[C@H](NC(=O)[C@H](C)N)C(=O)N1CCC[C@H]1C(=O)N[C@@H](CS)C(N)=O [AVPC, Ala-Val-Pro-Cys-NH2] next
output: true

input: Query CC(C)[C@H](NC(=O)[C@H](C)N)C(=O)N1CCC[C@H]1C(=O)N[C@@H](CC(N)=O)C(N)=O [AVPN] (H-AVPN-NH2) next
output: false

----------
test_target: BIR3 domain of XIAP (recombinant XIAP-BIR3, residues 238-358) (Homo sapiens)
Construct: Recombinant XIAP-BIR3 (residues 238-358); GST (N, cleaved yes)
experiment_description: Fluorescence-based competition assay of tetrapeptide libraries (Example 1)
Residues, ends and D or L forms follow the SMILES beside them.
What Kd was measured for each of the following?
Write it as a number; the unit µM goes unstated.

input: Requested field: Kd. Item: CC[C@H](C)[C@H](NC(=O)[C@@H]1CCCN1C(=O)[C@H](C)NC(=O)[C@H](C)N)C(N)=O [AAPI] (H-AAPI-NH2; N-terminus and C-terminus assumed)
output: 2.8

input: Query CC(C)[C@H](NC(=O)[C@H](C)N)C(=O)N1CCC[C@H]1C(=O)N[C@@H](Cc1c[nH]c2ccccc12)C(N)=O [AVPW] (H-AVPW-NH2; N-terminus and C-terminus assumed) next
output: 0.11

input: Query CC[C@H](C)[C@@H](C(N)=O)N(C)C(=O)[C@@H]1CCCN1C(=O)[C@@H](NC(=O)[C@H](C)N)C(C)C [AVP(N-Me)I] next
output: 174

input: Query CC[C@H](C)[C@@H](C(N)=O)N(C)C(=O)[C@@H]1CCCN1C(=O)[C@H](CCCNC(=N)N)NC(=O)[C@H](C)N [ARP(N-Me)I] next
output: 190

input: Query CSCC[C@H](NC(=O)[C@@H]1CCCN1C(=O)[C@@H](NC(=O)[C@H](C)N)C(C)C)C(N)=O [AVPM] (H-AVPM-NH2; N-terminus and C-terminus assumed) next
output: 2.3

input: Query CC(C)[C@H](NC(=O)[C@H](C)N)C(=O)N1CCC[C@H]1C(=O)N[C@@H](CO)C(N)=O [AVPS] (H-AVPS-NH2; N-terminus and C-terminus assumed) next
output: 4.4

input: Query CC(C)[C@@H](C(=O)N1CCC[C@H]1C(=O)N[C@@H](Cc1ccccc1)C(N)=O)N(C)C(=O)[C@H](C)N [A(N-Me)VPF] next
output: 83

input: Query CC[C@H](C)[C@H](NC(=O)[C@@H]1CCCN1C(=O)[C@H](C(C)C)N(C)C(=O)[C@H](C)N)C(N)=O [A(N-Me)VPI] next
output: 257

input: Query CC(C)[C@H](NC(=O)[C@H](C)N)C(=O)N1CCC[C@H]1C(=O)N[C@H](C(N)=O)[C@@H](C)O [AVPT] (H-AVPT-NH2; N-terminus and C-terminus assumed) next
output: 2.1

input: Query CC[C@H](C)[C@H](NC(=O)[C@@H]1CCCN1C(=O)[C@H](CCC(=O)O)NC(=O)[C@H](C)N)C(N)=O [AEPI] (H-AEPI-NH2; N-terminus and C-terminus assumed) next
output: 2.7
